- Test system: MDA-MB-231;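 further: viability of the cells left after supernatant collection, read with Deep Blue dye added for 4 h, as absorbance at 570 nm minus 600 nm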
- Measurement Description: cell viability relative to vehicle unstimulated control (fraction); higher = more viable cells
- Experimental Setup: pre-treatment time: 18 h then 24 h IFNg/TNF

Compound	Assay Target	cell viability
CC1(C)CC[C@]2(CO)CC[C@]3(C)C(=CC[C@@H]4[C@@]5(C)CC[C@H](O)C(C)(C)[C@@H]5CC[C@]43C)[C@@H]2C1 [Erythrodiol] (compound dose: 10 uM)	MDA-MB-231	1.08
O=C1C[C@@H](O[C@@H]2O[C@H](CO)[C@@H](O)[C@H](O)[C@H]2O)CO1 [Kinsenoside] (compound dose: 10 uM)	MDA-MB-231	0.971
CC(C)=CCCC(C)CCO (stereo not drawn) [Citronellol] (compound dose: 10 uM)	MDA-MB-231	1.03
